The origin of these recorded values is patent US20240158799.

# ASSAY_SYSTEM: SARS-CoV-2 spike protein (S1/S2 complex) (SARS-CoV-2, UniProt P0DTC2 P0DTC2:14-1213)

BINDER | binding result
SS10 (ssDNA) DNA: TAACCACATAACCGCAAGACGCACGCAAAACTTTCAGTAATCCTAAGATGCCATGTTACTATTGTGCTACTCTCCTCGT | binds
SS20 (ssDNA) DNA: TAACCACATAACCGCAAGACGAACACCGATGCCGCGCACAATCGTGTAAACGGATGTCCTATTGTGCTACTCTCCTCGT | binds
SS04 (ssDNA) DNA: TAACCACATAACCGCAAGACGAACGAACCATATAACGCGTAGTAACATCCAAGGCGCCCTATTGTGCTACTCTCCTCGT | binds
SS48 (ssDNA) DNA: TAACCACATAACCGCAAGACGACGACACAAAAGCATTTCGGCAATCCGACAGTGGTCCATATTGTGCTACTCTCCTCGT | binds
SS18 (ssDNA) DNA: TAACCACATAACCGCAAGACCAGCAGAAAACTCAACATAAGCAGCAGTTCGGGCGCTACTATTGTGCTACTCTCCTCGT | binds
SS12 (ssDNA) DNA: TAACCACATAACCGCAAGACGATGGCCGCAACCGAGAAACTATGACGATGGATCACGGCTATTGTGCTACTCTCCTCGT | binds
